Recorded measurements of pIC50, one per entry
Tested on: NF-κB
PROCEDURE DETAILS: NF-κB-dependent luciferase reporter gene assay, HeLa κB-transformed cells, TPA stimulated
Format: cell-based
CONDITION LABEL: Homo sapiens, HeLa, 8 h treatment, TPA 25 ng/ml 2 h after exposure, read-out: NF-κB, IC50 (concentration at which the compound halved the NF-κB activity)
Keep it numeric: pIC50 is minus log10 of the concentration in mol/L.

* CC(=O)NCCS[C@H]1CC(=O)C[C@@H]1O[Si](C)(C)C(C)(C)C [CTM-83] | 4.33
* CC(C)(C)C(=O)OC1[C@H](Sc2ccc3ccccc3c2)CC(=O)C1(C)C (stereo in doubt) [CTM-193] | 4.49

### Prompt Read the entry CCOC(=O)[C@H](CS[C@H]1CC(=O)C[C@@H]1O[Si](C)(C)C(C)(C)C)NC(=O)OC(C)(C)C [CTM-184] and write its reported pIC50.
### Response 4.21

Measured values drawn from patent US7759399B2 for this set.
